System: IPT-MAO A/B
Construct: full length 522 residues (borders given for the mammalian construct); N-terminal 6xHis; Pichia pastoris KM71; detergent-solubilized, FOS-choline-12
Test: HRP-coupled spectrophotometric assay of H2O2, […] nm
Type: biochemical, Megalops cyprinoides
Settings: 25 °C, 50 mM Hepes/NaOH pH 7.5, 0.5% v/v reduced Triton X-100; read-out: IPT-MAO A/B / K M / Human MAOB
Quick reference: Km of the listed items.
Write the numeric value and follow it with the unit.

INSERT INTO assay_data (itemsmiles, measuredtarget, value) VALUES
  ('NCc1ccccc1', 'IPT-MAO A/B', '50 µM');

Q) What value of Km has been reported for the following compound? `NCCC(=O)c1ccccc1N`
A) 30 µM

Q) Consider next the compound `NCCc1ccc(O)cc1` in the same way.
A) 200 µM

Q) Consider next the compound `NCCc1ccccc1` in the same way.
A) 70 µM
